Provenance of the data: PubChem BioAssay

Assay: binders from COS7 lysate, DM2A8 probe, primary screen, torsin A project, cell lysate, small-molecule microarray, fluorescence 635/667 (AID 1065)
Settings: higher = more signal, COS7 lysate expressing mutant human TOR1A
Measured endpoint: composite z-score

- Molecule: "COc1ccc([C@H]2C[C@H]3C(Br)=C[C@]2(OC)C(=O)[C@]32CO2)cc1"
  Observed measurement: -0.187
- Molecule: "COC(=O)c1ccc(C#CC(NP(=O)(c2ccccc2)c2ccccc2)c2ccccc2)cc1 (stereo not drawn)"
  Observed measurement: -0.214
- Molecule: "CO[C@H]1COC(=O)CC=C[C@H](C)[C@@H](OC)COC(=O)CC=C[C@@H]1C"
  Observed measurement: 1.7
- Molecule: "O=C1NC(=O)C2C1C=CC(C(O)C=Cc1ccc([N+](=O)[O-])cc1)N2Nc1ccccn1 (stereo not drawn)"
  Observed measurement: 0.224
- Molecule: "COCCOC(=O)N1C(=O)[C@@]2(c3cc(C#CCNC(N)=O)ccc31)[C@H](c1ccccc1OCCO)N1[C@H](c3ccccc3)[C@H](c3ccccc3)OC(=O)[C@H]1[C@@H]2C(=O)NC[C@H](O)c1ccccc1"
  Observed measurement: 1.27
- Molecule: "CO[C@H]1COC(=O)[C@@H](C)COC(=O)[C@H](Cc2ccccc2)NC(=O)CC=C[C@H]1C"
  Observed measurement: 0.995
- Molecule: "CN1C(=O)C2C=CC(C(O)c3ccc(N(C)C)cc3)N(Nc3ccc([N+](=O)[O-])cc3[N+](=O)[O-])C2C1=O (stereo not drawn)"
  Observed measurement: 0.989
- Molecule: "C=CCN1C(=O)[C@]2(O[C@H](CCn3cc(CCO)nn3)[C@@H]([Si](C)(C)c3ccc(OC)cc3)[C@@H]2C)c2cc(NC(=O)c3ccc(OC)cc3)ccc21"
  Observed measurement: 0.473
- Molecule: "C[C@@H]1NC(=O)CC=C[C@@H](C)[C@@H]2C=C[C@H](O)[C@@H](COC(=O)[C@H](C)NC(=O)CC=C[C@@H](C)[C@@H]3C=C[C@H](O)[C@@H](COC1=O)O3)O2"
  Observed measurement: 0.0339
- Molecule: "CN(C)CCCC[C@@H]1NC(=O)[C@@H]2C[C@H](C(=O)O)[C@H](c3ccc(O)cc3)N2C1=O"
  Observed measurement: 0.738
- Molecule: "CO[C@H]1COC(=O)[C@H](C)NC(=O)CC=C[C@@H](C)[C@H](NS(=O)(=O)c2ccc(C)cc2)COC(=O)CC=C[C@@H]1C"
  Observed measurement: 1.84
- Molecule: "COC(=O)[C@@]1(Cc2ccccc2)[C@H]2c3cc(C(=O)N4CCCC4)n(CCN4CNCC4=O)c3C[C@H]2CN1C(=O)c1ccccc1"
  Observed measurement: 1.35
- Molecule: "CCN1C(C)=C(C(=O)OC)[C@@H](c2ccccc2)N2C(=O)[C@@]3(C(=O)OC)O[C@@]12[C@@H]1C(=O)N(C)C(=O)[C@@H]13"
  Observed measurement: 0.139
- Molecule: "CO[C@H]1COC(=O)[C@@H](OCc2ccccc2)C=C[C@H](C)[C@@H](OC)COC(=O)[C@H](OCc2ccccc2)C=C[C@@H]1C"
  Observed measurement: -0.144
- Molecule: "CCCC=C(CCC)[C@@H](NS(=O)(=O)c1cccc(C(F)(F)F)c1)c1ccc(C(=O)OC)cc1"
  Observed measurement: 0.131
- Molecule: "COC(=O)C1=CC(c2ccc(CO)cc2)=CC(c2cccs2)N(Cc2cccc(OC(F)(F)F)c2)C=C1C(=O)OC (stereo not drawn)"
  Observed measurement: 1.41
- Molecule: "COCCCNC(=O)[C@@]1(Sc2ccc(C)cc2)CC(=O)N(Cc2cc(C(F)(F)F)cc(C(F)(F)F)c2)[C@@H]1c1ccc(CO)cc1I"
  Observed measurement: -0.181
- Molecule: "COC(=O)[C@H]1[C@@H]2COc3ccccc3[C@H]2N[C@H]1C(=O)OC"
  Observed measurement: -0.0479
- Molecule: "COc1cc(Cc2cc3c(c(CCc4ccccc4)n2)[Si](C(C)C)(C(C)C)OC3)cc(OC)c1OC"
  Observed measurement: -0.0736
- Molecule: "CCOC(=O)C1=CC[C@@H](c2ccc(-c3ccc(OCc4ccccc4)cc3)c(OC)c2)N(S(=O)(=O)c2ccc(C)cc2)[C@H]1c1ccccc1"
  Observed measurement: 0.448
- Molecule: "Cc1ccc(S[C@]2(C(=O)NC(C)C)CC(=O)N(Cc3cc(C(F)(F)F)cc(C(F)(F)F)c3)[C@@H]2c2ccc(CO)cc2I)cc1"
  Observed measurement: -0.666
- Molecule: "C=CC[C@]1(C(=O)O)N=C(c2ccc(OCCCO)cc2)O[C@H]1c1ccccc1"
  Observed measurement: -0.269
- Molecule: "CCCC=C(CCC)[C@@H](NS(=O)(=O)c1ccc(C(F)(F)F)cc1)c1ccc(-c2ccccc2)cc1"
  Observed measurement: 0.0864
- Molecule: "O=C1O[C@H](c2ccccc2)[C@H](c2ccccc2)N2[C@H]1[C@@H](C(=O)Nc1nc3ccccc3s1)[C@]1(C(=O)Nc3ccc(C#CC4(O)CCCCCC4)cc31)[C@H]2c1ccc(O)cc1"
  Observed measurement: -0.0427
- Molecule: "CCOC(=O)C[C@H]1[C@H](OC(=O)Cc2ccc3c(c2)OCO3)[C@@H](NC(=O)CC(C)C)c2cc(OCCCO)ccc2N1C(=O)c1ccccc1"
  Observed measurement: 0.128
- Molecule: "CC(C)NC(=O)[C@@]1(Cc2ccccc2I)c2ccccc2C(=O)N(C2CCCCC2)[C@H]1c1ccc(CO)cc1"
  Observed measurement: 0.072
- Molecule: "CC(=O)NCCCC[C@@H]1NC(=O)[C@H]2C[C@@H](C(=O)NCCCCCCN(C)C)[C@@H](c3ccc(O)cc3)N2C1=O"
  Observed measurement: 1.68
- Molecule: "C=CCNC(=O)[C@H]1[C@@H]2C(=O)O[C@@H](c3ccccc3)[C@@H](c3ccccc3)N2[C@@H](c2ccccc2OCCO)[C@]12C(=O)N(C(=O)OCCOC)c1ccc(C#CCNC(N)=O)cc12"
  Observed measurement: 0.912

----------
Assay: basal RPMI8226 mitochondrial membrane potential changes, profiling panel, cell-based, JC-1 fluorescence, 24 h, 100 nL compound (AID 1169); further: test concentration not given here
Conditions: RPMI8226 myeloma, JC-1 mitochondrial potential fluorescence, higher = more signal
Entries get a class label from measured z-score. See ranges: low: < -0.5; mid: ≥ -0.5 and < -0.006; high: ≥ -0.006

- Molecule: "COCCOC(=O)N1C(=O)[C@@]2(c3cc(C#CCNC(N)=O)ccc31)[C@H](C(=O)N1CCCCCCC1)[C@H]1C(=O)O[C@H](c3ccccc3)[C@H](c3ccccc3)N1[C@@H]2c1ccccc1OCCO"
  Answer label: "low"
- Molecule: "O=C1O[C@@H](c2ccccc2)[C@@H](c2ccccc2)N2[C@@H](c3ccccc3OCCO)[C@]3(C(=O)Nc4ccc(C#CC5=CCCCC5)cc43)[C@@H](C(=O)O)[C@H]12"
  Answer label: "low"
- Molecule: "CO[C@@H]1COC(=O)[C@H](C)NC(=O)CC=C[C@@H](C)[C@H](NS(=O)(=O)c2ccc(C)cc2)COC(=O)CC=C[C@@H]1C"
  Answer label: "mid"
- Molecule: "CCCC[C@H]1OB(O)C[C@H]2C1=C(COC)C[C@H]1C(=O)N(Cc3ccccc3)C(=O)[C@H]12"
  Answer label: "high"
- Molecule: "CSCC[C@@H]1NC(=O)CC=C[C@@H](C)COC(=O)[C@H](CCSC)NC(=O)CC=C[C@@H](C)COC1=O"
  Answer label: "high"
- Molecule: "O=C1O[C@@H](c2ccccc2)[C@@H](c2ccccc2)N2[C@@H](c3ccc(O)cc3)[C@]3(C(=O)Nc4ccccc43)[C@@H](C(=O)N3CCN(c4ncccn4)CC3)[C@H]12"
  Answer label: "mid"
- Molecule: "COCCCNC(=O)[C@@H]1c2ccccc2C(=O)N(CC23CC4CC(CC(C4)C2)C3)[C@H]1c1ccc(CO)cc1"
  Answer label: "high"
- Molecule: "CC(C)NC(=O)[C@@]1(Cc2ccccc2I)c2ccccc2C(=O)N(C2CCCCC2)[C@H]1c1ccc(CO)cc1"
  Answer label: "low"
- Molecule: "CC(=O)NCCCC[C@@H]1NC(=O)[C@@H]2C[C@H](C(=O)NCc3ccc(F)cc3)[C@H](c3cccc(OCCO)c3)N2C1=O"
  Answer label: "mid"
- Molecule: "C#C[C@H](O[Si](C#Cc1ccccc1)(C(C)C)C(C)C)c1ccccc1"
  Answer label: "mid"
- Molecule: "O=C1OCCC=C[C@H]2OC34C=CCN(Cc5ccccc5)C(=O)[C@H]3N(CCO)C(=O)[C@@H]4C12 (some centres undefined)"
  Answer label: "high"
- Molecule: "COC(=O)[C@@]1(Cc2ccccc2CN=[N+]=[N-])N=C(c2ccc(OCCCO)cc2)O[C@H]1c1ccccc1N=[N+]=[N-]"
  Answer label: "low"
- Molecule: "CCCC[C@@H]1C[C@H]1[C@@H](NC(=O)c1ccccc1)c1ccccc1C(F)(F)F"
  Answer label: "mid"
